Target protein (sequence): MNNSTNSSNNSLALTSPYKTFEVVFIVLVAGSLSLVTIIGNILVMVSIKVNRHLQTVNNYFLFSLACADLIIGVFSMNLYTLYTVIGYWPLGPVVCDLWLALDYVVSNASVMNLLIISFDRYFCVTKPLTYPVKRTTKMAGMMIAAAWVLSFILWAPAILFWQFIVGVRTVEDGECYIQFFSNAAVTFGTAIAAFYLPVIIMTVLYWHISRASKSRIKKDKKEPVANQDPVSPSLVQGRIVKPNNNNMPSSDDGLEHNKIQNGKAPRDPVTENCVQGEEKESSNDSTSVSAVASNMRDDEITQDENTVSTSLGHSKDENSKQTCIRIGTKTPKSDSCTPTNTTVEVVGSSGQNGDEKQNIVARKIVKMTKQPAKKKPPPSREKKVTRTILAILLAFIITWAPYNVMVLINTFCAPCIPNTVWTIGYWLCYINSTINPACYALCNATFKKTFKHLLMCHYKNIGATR
pKi: −log10 of the molar value.
Readout Type: pKi

P. C[N+]1(C)CCC[C@H]1[C@H]1C[S+]([O-])[C@@](c2ccccc2)(C2CCCCC2)O1.[I-] (stereo in doubt; (+)-13)
Q. CN1CCC[C@H]1[C@H]1C[S+]([O-])[C@@](c2ccccc2)(C2CCCCC2)O1 (stereo in doubt; (+)-6)
Query string: Given the listed records, identify the one among P and Q with higher pKi. Mark your answer with the label of the selected entry.
Result string: P

I. C[N+]1(C)CCC[C@H]1[C@H]1C[S+]([O-])[C@@](c2ccccc2)(C2CCCCC2)O1.[I-] (stereo in doubt; (+)-12)
II. CN1CCC[C@@H]1[C@@H]1C[S+]([O-])C(c2ccccc2)(c2ccccc2)O1 (stereo in doubt; (-)-4)
III. CN1CCC[C@@H]1[C@@H]1C[S+]([O-])[C@](c2ccccc2)(C2CCCCC2)O1 (stereo in doubt; (-)-7)
IV. C[N+]1(C)CCC[C@@H]1[C@@H]1C[S+]([O-])[C@@](c2ccccc2)(C2CCCCC2)O1.[I-] (stereo in doubt; (+)-14)
Query string: Order the records by pKi, with each subsequent value no larger than the one before. Would you mind listing the labels in the order asked for?
Result string: III, IV, I, II

a. C[N+]1(C)CCC[C@H]1[C@H]1C[S+]([O-])[C@](c2ccccc2)(C2CCCCC2)O1.[I-] (stereo in doubt; (-)-15)
b. C[N+]1(C)CCC[C@H]1[C@H]1C[S+]([O-])C(c2ccccc2)(c2ccccc2)O1.[I-] (stereo in doubt; (+)-10)
Query string: Lab notebook, comparison: a versus b , higher pKi goes to which? Kindly give the label for the entry you pick.
Result string: a

src = ChEMBL document CHEMBL1150330
